Source of measurements: patent US11766434B2

Biological target: Cdc7 (Homo sapiens)
Assay: Cdc7 cell pharmacodynamics assay Method 2: pS40MCM2 levels in HCT116 cells
Type: cell-based
Design: endogenous in cells
Details: 18 hours treatment, read-out: Biomarker Method 2 (pEC50) (converted)
# EC50 listing for each entry below
Record the value in nM, omitting the unit from your answer.

Sample records with EC50:
# Molecule, EC50 [nM]
measured = [
    ("CC1CNCCN1c1nc(-c2c[nH]c3ncccc23)[nH]c(=O)c1Cl (stereo in doubt)", 100),
    ("O=c1[nH]c(-c2cn[nH]c2C(F)(F)F)nc(C2CCOCC2)c1Cl", 372),
    ("C[C@@H]1COCCN1c1nc(-c2cn[nH]c2C(F)(F)F)[nH]c(=O)c1Cl", 7.24),
    ("C[C@@H]1CNCCN1c1nc(-c2cn[nH]c2Cl)[nH]c(=O)c1Cl", 38),
    ("O=c1[nH]c(-c2cn[nH]c2C(F)(F)F)nc(N2CCOCC2)c1Cl", 38),
]

Kindly note the recorded EC50 for O=c1[nH]c(-c2cn[nH]c2C(F)(F)F)nc(N2CCNCC(F)(F)C2)c1Cl , which is 44.7

Kindly note the recorded EC50 for O=c1[nH]c(-c2c[nH]c3ncccc23)nc(N2CCNCC(F)(F)C2)c1Cl , which is 851

====

Target: Cdc7/ASK (Homo sapiens, UniProt O00311)
Assay: Cdc7 biochemical assay Method 3: off-chip mobility shift assay (MSA) run at Carna Biosciences
Set-up: purchased Carna Biosciences; host or cells: baculovirus expression system
Details: MCM2 peptide 1000 nM, ATP 5 μM, 5 hours, read-out: Biochemical method 3 (pIC50) (converted)
Where a name gives a salt, the structure may show the parent alone.
Mark satisfied only for IC50 values smaller than 6 nM; exact matches and larger values are not satisfied.

# Compound, Classification
records = [
    ("O=c1[nH]c(-c2scnc2Cl)nc(N2CCNCC(F)(F)C2)c1Cl [Compound 66, hydrochloride]", "satisfied"),
]

Determine if O=c1[nH]c(-c2scnc2Cl)nc(N2CCNCC2C(F)F)c1Cl (single isomer, unassigned) [Compound 70, hydrochloride] shows IC50 strictly lower than 6 nM. not satisfied

Determine if Cc1ncsc1-c1nc(N2CCNCC2C(F)(F)F)c(Cl)c(=O)[nH]1 (centres unmarked) shows IC50 strictly lower than 6 nM. not satisfied

====

# IC50 listing for each entry below
Target: Cdc7/ASK (Homo sapiens, UniProt O00311)
Test: Cdc7 biochemical assay Method 3: off-chip mobility shift assay (MSA) run at Carna Biosciences
Parameters: purchased Carna Biosciences; host or cells: baculovirus expression system
Settings: MCM2 peptide 1000 nM, ATP 5 μM, 5 hours, read-out: Biochemical method 3 (pIC50) (converted)
Structures can show the parent of a compound that is named as a salt.
Record the value in nM, omitting the unit from your answer.

# Molecule, Tgt, Value Reported
records = [
    ("O=c1[nH]c(-c2scnc2Cl)nc(N2CCNCC(F)C2)c1Cl (single isomer, unassigned) [Compound 73, hydrochloride]", "Cdc7/ASK (Homo sapiens, UniProt O00311)", 10.2),
]

Measured IC50 (Cdc7/ASK (Homo sapiens, UniProt O00311)), entry Cc1ncsc1-c1nc(N2CCNCC2C(F)F)c(Cl)c(=O)[nH]1 (centres unmarked) [Compound 61] : 12.9

Measured IC50 (Cdc7/ASK (Homo sapiens, UniProt O00311)), entry O=c1[nH]c(-c2scnc2Cl)nc(N2CCNCC2C(F)(F)F)c1Cl (centres unmarked) [Compound 68] : 6.92

Measured IC50 (Cdc7/ASK (Homo sapiens, UniProt O00311)), entry Cc1ncsc1-c1nc(N2CCNCC(F)C2)c(Cl)c(=O)[nH]1 (centres unmarked) [Compound 62] : 21.4

Measured IC50 (Cdc7/ASK (Homo sapiens, UniProt O00311)), entry C[C@@H]1CNCCN1c1nc(-c2cn[nH]c2Cl)[nH]c(=O)c1Cl [Compound 43] : 3.89

Measured IC50 (Cdc7/ASK (Homo sapiens, UniProt O00311)), entry Cc1ncsc1-c1nc(N2CCNC[C@H]2C)c(Cl)c(=O)[nH]1 [Compound 58] : 7.08

Measured IC50 (Cdc7/ASK (Homo sapiens, UniProt O00311)), entry C[C@@H]1COCCN1c1nc(-c2scnc2Cl)[nH]c(=O)c1Cl [Compound 64] : 4.17

Measured IC50 (Cdc7/ASK (Homo sapiens, UniProt O00311)), entry Cc1ncsc1-c1nc(N2CCNCC(F)(F)C2)c(Cl)c(=O)[nH]1 [Compound 57, hydrochloride] : 6.46

====

# EC50 listing for each entry below
Target: Cdc7 (Homo sapiens)
Assay: Cdc7 cell pharmacodynamics assay Method 1: pS53MCM2 levels in HCT116 cells
Assay type: cell-based
Design: endogenous in cells
Conditions: 6 hours treatment, read-out: Biomarker Method 1 (pEC50) (converted)
Record the value in µM, omitting the unit from your answer.

Sample records with EC50:
# Compound Structure String, U, EC50
data = [
    ("O=c1[nH]c(-c2cn[nH]c2C(F)(F)F)nc(C2CCOCC2)c1Cl", "µM", 0.112),
    ("Cc1ncsc1-c1nc(C2CCOCC2)c(Cl)c(=O)[nH]1", "µM", 0.107),
]

Attention now turns to another entry.
Kindly note the recorded EC50 for Cc1ncsc1-c1nc(C2CCOCC2)c(F)c(=O)[nH]1 , which is 0.331

====

Target: Cdc7 (Homo sapiens, UniProt O00311)
Sequence (O00311 whole entry): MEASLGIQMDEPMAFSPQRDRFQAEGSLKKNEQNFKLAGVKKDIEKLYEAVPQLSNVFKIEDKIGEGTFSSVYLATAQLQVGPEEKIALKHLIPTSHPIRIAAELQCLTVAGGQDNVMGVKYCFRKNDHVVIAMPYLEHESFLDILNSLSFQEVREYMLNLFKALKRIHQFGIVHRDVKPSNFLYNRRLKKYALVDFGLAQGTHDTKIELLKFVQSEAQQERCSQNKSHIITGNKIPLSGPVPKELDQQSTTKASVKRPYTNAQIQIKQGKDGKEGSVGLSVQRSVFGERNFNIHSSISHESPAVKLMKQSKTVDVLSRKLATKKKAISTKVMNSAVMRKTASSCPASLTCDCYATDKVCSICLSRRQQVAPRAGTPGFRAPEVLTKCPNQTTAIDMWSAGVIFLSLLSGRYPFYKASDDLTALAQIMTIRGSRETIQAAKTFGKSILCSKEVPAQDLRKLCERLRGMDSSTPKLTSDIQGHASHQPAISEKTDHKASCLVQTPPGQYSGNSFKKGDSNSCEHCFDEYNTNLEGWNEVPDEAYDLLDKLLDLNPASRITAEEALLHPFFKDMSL
Sequence (Q9UBU7 whole entry partner): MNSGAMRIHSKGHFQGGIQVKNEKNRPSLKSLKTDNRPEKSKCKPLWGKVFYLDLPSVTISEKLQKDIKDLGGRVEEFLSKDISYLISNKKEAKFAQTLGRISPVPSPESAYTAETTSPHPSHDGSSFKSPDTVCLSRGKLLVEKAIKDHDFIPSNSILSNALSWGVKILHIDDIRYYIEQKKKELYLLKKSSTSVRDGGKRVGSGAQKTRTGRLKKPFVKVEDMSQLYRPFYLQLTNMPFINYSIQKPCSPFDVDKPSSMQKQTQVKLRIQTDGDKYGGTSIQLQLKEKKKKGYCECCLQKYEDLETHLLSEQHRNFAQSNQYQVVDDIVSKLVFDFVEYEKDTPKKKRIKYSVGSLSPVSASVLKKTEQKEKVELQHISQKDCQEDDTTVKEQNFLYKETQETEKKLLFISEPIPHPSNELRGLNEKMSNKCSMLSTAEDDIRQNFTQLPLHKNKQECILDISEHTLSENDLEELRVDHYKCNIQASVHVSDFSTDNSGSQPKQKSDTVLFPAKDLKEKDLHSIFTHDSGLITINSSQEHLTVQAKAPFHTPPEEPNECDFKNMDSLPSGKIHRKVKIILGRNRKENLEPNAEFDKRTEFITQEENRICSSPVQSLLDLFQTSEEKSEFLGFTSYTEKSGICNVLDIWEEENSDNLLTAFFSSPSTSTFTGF
Assay: Cdc7 cell pharmacodynamics assay Method 1: pS53MCM2 levels in HCT116 cells
Type: cell-based
Design: endogenous in cells
Conditions: 6 hours treatment, read-out: Biomarker Method 1 (pEC50) (converted)
Mark class 1 only for EC50 values smaller than 0.3 µM; exact matches and larger values are class 0.

Illustrative cases are given below, each with its answer.
# Compound, Classification
data = [
    ("O=c1[nH]c(-c2scnc2C(F)(F)F)nc(C2CCOCC2)c1Cl [Compound 14]", "class 1"),
    ("Cc1ncsc1-c1nc(C2CCNCC2)c(Cl)c(=O)[nH]1 [Compound 2]", "class 0"),
    ("Cc1ncsc1-c1nc(N2CCN[C@@H](C(C)C)C2)c(Cl)c(=O)[nH]1 [Compound 39]", "class 0"),
]

# ---- query compound ----
Determine if Cc1ncsc1-c1nc(N2CCNCC2)c(Cl)c(=O)[nH]1 [Compound 38] shows EC50 strictly lower than 0.3 µM. class 1

====

Molecular target: Cdc7/ASK (Homo sapiens, UniProt O00311)
Experiment: Cdc7 biochemical assay Method 1: 384 well ELISA, MCM2 whole protein substrate, Phospho MCM2 (S53) antibody
Set-up: purchased
Details: ATP 2 μM, 90 minutes, read-out: Biochemical method 1 (pIC50) (converted)
Mark t only for IC50 values smaller than 4 nM; exact matches and larger values are f.

Illustrative cases are given below, each with its answer.
# Molecule, Classification
rows = [
    ("Cc1ncsc1-c1nc(C2CCOCC2)c(C#N)c(=O)[nH]1", "f"),
    ("Cc1ncsc1-c1nc(N2CCN[C@H](C)C2)c(Cl)c(=O)[nH]1", "f"),
    ("Cc1ncsc1-c1nc(N2CCNCC2)c(Cl)c(=O)[nH]1", "t"),
]

Determine if O=c1[nH]c(-c2scnc2C(F)(F)F)nc(C2CCOCC2)c1Cl shows IC50 strictly lower than 4 nM. t

Determine if Cc1ncsc1-c1nc(N2CCN[C@@H](C(F)(F)F)C2)c(Cl)c(=O)[nH]1 shows IC50 strictly lower than 4 nM. t

Determine if Cc1ncoc1-c1nc(C2CCOCC2)c(Cl)c(=O)[nH]1 shows IC50 strictly lower than 4 nM. f

Determine if O=c1[nH]c(-c2scnc2Cl)nc(C2CCOCC2)c1Cl shows IC50 strictly lower than 4 nM. t

Determine if Cc1ncsc1C(=O)N1CCC(c2nc(-c3scnc3C)[nH]c(=O)c2Cl)CC1 shows IC50 strictly lower than 4 nM. f

Determine if O=c1[nH]c(-c2cn[nH]c2C(F)(F)F)nc(C2CCOCC2)c1Cl shows IC50 strictly lower than 4 nM. t

Determine if Cc1ncsc1-c1nc(N2CCC(CO)CC2)c(Cl)c(=O)[nH]1 shows IC50 strictly lower than 4 nM. t

Determine if O=c1[nH]c(-c2cncs2)nc(C2CCOCC2)c1Cl shows IC50 strictly lower than 4 nM. f

Determine if Cc1ncsc1-c1nc(C2CCOCC2)c(Br)c(=O)[nH]1 shows IC50 strictly lower than 4 nM. f

Determine if Cc1ncsc1-c1nc(N2CCN[C@@H](C)C2)c(Cl)c(=O)[nH]1 shows IC50 strictly lower than 4 nM. t

Determine if Cc1ncsc1-c1nc(C2CCN(C(=O)OC(C)(C)C)CC2)c(Cl)c(=O)[nH]1 shows IC50 strictly lower than 4 nM. f

Determine if Cc1ncsc1-c1nc(N2CCCC(CO)C2)c(Cl)c(=O)[nH]1 (stereo not drawn) shows IC50 strictly lower than 4 nM. f

Determine if Cc1ncsc1-c1nc(N2CCCNC(=O)C2)c(Cl)c(=O)[nH]1 shows IC50 strictly lower than 4 nM. f

Determine if Cc1ncsc1-c1nc(N2CCCC(F)(F)C2)c(Cl)c(=O)[nH]1 shows IC50 strictly lower than 4 nM. t

Determine if Cn1nccc1-c1nc(C2CCOCC2)c(Cl)c(=O)[nH]1 shows IC50 strictly lower than 4 nM. f

Determine if Cc1nc(O)sc1-c1nc(C2CCOCC2)c(Cl)c(=O)[nH]1 shows IC50 strictly lower than 4 nM. f

Determine if Cc1ncsc1-c1nc(C2CCOCC2)c(F)c(=O)[nH]1 shows IC50 strictly lower than 4 nM. f
